Consider the following sequences; for each one, report its self-aminoacylation.
- Tested on: biotinyl-Val-oxazolone
- assayProcedure: self-aminoacylation, catalytic enhancement (BVO) (fold over background); higher = more active; k-Seq, kA / k0A0; sequences stand for … in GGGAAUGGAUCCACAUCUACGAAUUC…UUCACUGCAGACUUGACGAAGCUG
Variants at the floor of the assay were thinned out.
# output: bare number, no unit

# get_value(readout= self-aminoacylation, system= biotinyl-Val-oxazolone) for AAGUUUGAUAAAAGUCGCAAG [Fam3.1 aminoacylation ribozyme variant]
1.22

Form entry - test system: biotinyl-Val-oxazolone; read-out: self-aminoacylation; sequence: AAGUUUGCUAAUUGUAGCAAG [Fam3.1 aminoacylation ribozyme variant]
1.03

Under biotinyl-Val-oxazolone: self-aminoacylation value of AUUGAACUAGGUCAUCGGGUG [Fam2.2 aminoacylation ribozyme variant] ?
3.28

// map AAGUUUGCAAAUUGUCGCAAG [Fam3.1 aminoacylation ribozyme variant] to recorded self-aminoacylation (system: biotinyl-Val-oxazolone)
1.19

Write down the reported self-aminoacylation of AUUACCCUGGUCAUGGAAUGA [Fam2.1 aminoacylation ribozyme variant] , test system: biotinyl-Val-oxazolone.
1.21

Param readout= self-aminoacylation; system= biotinyl-Val-oxazolone; entry= CUACUUCAAACCAUCCGUCUG [Fam1A.1 aminoacylation ribozyme variant] ; returns value.
1.14

Which self-aminoacylation is reported with biotinyl-Val-oxazolone for this entry: AAUAACCUAGGUCAUCGGGUG [Fam2.2 aminoacylation ribozyme variant] ?
3.3

Could you share what self-aminoacylation was measured for AUUAACCUGGUCAUCGAGCGA [Fam2.1 aminoacylation ribozyme variant] , tested on biotinyl-Val-oxazolone?
1.5

Test system biotinyl-Val-oxazolone; read-out self-aminoacylation; what value for CCACACUUCGAGCAAUCCGUC [Fam1B.1 aminoacylation ribozyme variant] ?
1.49

Identify the measured self-aminoacylation of AUUACCUUGGUCAUCGAGUCA [Fam2.1 aminoacylation ribozyme variant] for biotinyl-Val-oxazolone.
0.81

Recall the recorded self-aminoacylation for CAGUUUGCUAAUAGUAGCAAG [Fam3.1 aminoacylation ribozyme variant] with biotinyl-Val-oxazolone and state it.
1.04

Notebook entry, biotinyl-Val-oxazolone assay: self-aminoacylation of AAUCACAUAGGUCAUCGGGUG [Fam2.2 aminoacylation ribozyme variant] = ?
4.18

For the record GCACACCUCAAGCAAUCGGUC [Fam1B.1 aminoacylation ribozyme variant] , what value of self-aminoacylation is listed for biotinyl-Val-oxazolone?
1.73

What self-aminoacylation appears in the records for this sequence with biotinyl-Val-oxazolone? AUACUUCAAACAAUCCGUCUG [Fam1A.1 aminoacylation ribozyme variant]
0.918

Lab request: please report self-aminoacylation under test system biotinyl-Val-oxazolone for CCACACUUCAAGCAUUCGUUC [Fam1B.1 aminoacylation ribozyme variant]
1.02

Observed self-aminoacylation on biotinyl-Val-oxazolone for AUUACGCUGGUCCUCGAGUGA [Fam2.1 aminoacylation ribozyme variant] , please.
4.14

Short answer please: self-aminoacylation, biotinyl-Val-oxazolone, entry AAGUUUGGUAAUAGUCGCAGG [Fam3.1 aminoacylation ribozyme variant]
1.4

Record AUUCACCGAGGUCAUCGCGUG [Fam2.2 aminoacylation ribozyme variant] : what is its self-aminoacylation with biotinyl-Val-oxazolone?
9.71

* * *

So I've got a bunch of sequences here, and I need their self-aminoacylation values.
- System: biotinyl-Met-oxazolone
- assayProcedure: self-aminoacylation, catalytic enhancement (BMO) (fold over background); higher = more active; k-Seq, kA / k0A0; sequences stand for … in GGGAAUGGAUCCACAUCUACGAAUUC…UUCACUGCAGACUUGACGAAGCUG
This sample holds only a part of the variants without activity.
Answer with a bare number; do not write a unit.

Fill in the blank: the reported self-aminoacylation of AACUUUGCUAAUAGUCGCAUG [Fam3.1 aminoacylation ribozyme variant] is ____.
2.35

# input sequence: AAGUUUGCCAAUAGUCGAAAG [Fam3.1 aminoacylation ribozyme variant] ; wanted: its self-aminoacylation
1.44

# query: self-aminoacylation of entry AGUCAGCUAGGUCAUCGGGUG [Fam2.2 aminoacylation ribozyme variant]
5.84

Find the recorded self-aminoacylation belonging to AAGUGUGCUAAUAGUCGCACG [Fam3.1 aminoacylation ribozyme variant] and report it.
1.6

Quick check: self-aminoacylation of AAGUUUGCUAAUAGUCGCGCG [Fam3.1 aminoacylation ribozyme variant] ?
3.95

May I ask what self-aminoacylation has been recorded for CUACAUCAAAAAAUCGGUCUG [Fam1A.1 aminoacylation ribozyme variant] ?
0.712

Requested read-out: self-aminoacylation. Entry: AUUCUCCUAGGUCAUCGGGGG [Fam2.2 aminoacylation ribozyme variant]
3.48

So what does the record say about self-aminoacylation for AAUUUCGCUAAUAGUCGCAAG [Fam3.1 aminoacylation ribozyme variant] ?
1.94

Item under review: AUUCACCUAGGUCAUAGGGUG [Fam2.2 aminoacylation ribozyme variant] . Reported self-aminoacylation?
1.75

* * *

- Test system: biotinyl-Val-oxazolone
- assayProcedure: self-aminoacylation, catalytic enhancement (BVO) (fold over background); higher = more active; k-Seq, kA / k0A0; sequences stand for … in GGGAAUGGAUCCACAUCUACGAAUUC…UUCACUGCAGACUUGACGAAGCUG
Fewer inactive variants are shown than the library holds.
Quick rule: self-aminoacylation of at least 1 means Condition met, below that means Condition not met.

Hi team, for AUUACCCAGGUCAUCGAGUGC [Fam2.1 aminoacylation ribozyme variant] , is the recorded self-aminoacylation at or above 1?
Condition not met

Hi team, for AUUCGCCUGGGUCAUCGGGUG [Fam2.2 aminoacylation ribozyme variant] , is the recorded self-aminoacylation at or above 1?
Condition met

// inclusive: self-aminoacylation at least 1? input: CCACACUCCCAGCAAUCGGUC [Fam1B.1 aminoacylation ribozyme variant]
Condition met

self-aminoacylation >= 1 for AUUACCCUGGUGCUCGAGUGA [Fam2.1 aminoacylation ribozyme variant] ?
Condition met

self-aminoacylation >= 1 for AAGUUUCCGAAUAGUCGCAAG [Fam3.1 aminoacylation ribozyme variant] ?
Condition met

Confirm if self-aminoacylation reported for the sequence CAACUUAAAACAAUCGGUCUG [Fam1A.1 aminoacylation ribozyme variant] is 1 or above.
Condition met

Threshold query (self-aminoacylation >= 1) on AUUACCCCGGUCAUCGAGAGA [Fam2.1 aminoacylation ribozyme variant]
Condition not met

Can AUGUUUGCUAAUCGUCGCAAG [Fam3.1 aminoacylation ribozyme variant] be said to have self-aminoacylation at or above 1?
Condition met

* * *

- System: biotinyl-Trp-oxazolone
- assayProcedure: self-aminoacylation, catalytic enhancement (BWO) (fold over background); higher = more active; k-Seq, kA / k0A0; sequences stand for … in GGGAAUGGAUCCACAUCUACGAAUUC…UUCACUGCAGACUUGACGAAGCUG
Fewer inactive variants are shown than the library holds.
Each entry gets false (0) if its self-aminoacylation stays under 1, and true (1) if its self-aminoacylation is 1 or above.

Could you tell me if the measured self-aminoacylation of AUUCACCUGGGUUAUCGGGUG [Fam2.2 aminoacylation ribozyme variant] reaches 1 or more?
true (1)

hey, is self-aminoacylation for this one >= 1? CUACUGCAAACAAUCGGUCUC [Fam1A.1 aminoacylation ribozyme variant]
false (0)

Could you verify whether the entry CUUCACCUAGGUCAUCGGCUG [Fam2.2 aminoacylation ribozyme variant] shows self-aminoacylation of no less than 1?
true (1)

In plain terms: is recorded self-aminoacylation at least 1 for AUACUUCAACCAAUCGGUCUG [Fam1A.1 aminoacylation ribozyme variant] ?
true (1)

Exam item: decide whether the reported self-aminoacylation for CUACUUCAAUCUAUCGGUCUG [Fam1A.1 aminoacylation ribozyme variant] is at least 1.
false (0)

Tell me whether self-aminoacylation is at least 1 here: AUUCACCUACGUCAUCGUGUG [Fam2.2 aminoacylation ribozyme variant]
false (0)

Has CUUACCCUGGUCAUCGAGUGA [Fam2.1 aminoacylation ribozyme variant] a recorded self-aminoacylation greater than or equal to 1?
true (1)

Evaluate AUGCACCAAGGUCAUCGGGUG [Fam2.2 aminoacylation ribozyme variant] : self-aminoacylation at minimum 1?
true (1)

Confirm if self-aminoacylation reported for the sequence ACUACCCUGGUCAUCCAGUGA [Fam2.1 aminoacylation ribozyme variant] is 1 or above.
true (1)

Evaluate CGACACAUCAAGCAAUCGGUC [Fam1B.1 aminoacylation ribozyme variant] : self-aminoacylation at minimum 1?
false (0)

Could you please find out whether CUACUUUAAAAAAUCGGUCUG [Fam1A.1 aminoacylation ribozyme variant] has self-aminoacylation that meets 1 or exceeds it?
false (0)

Hi team, for CCACACUACAAGCAAUGGGUC [Fam1B.1 aminoacylation ribozyme variant] , is the recorded self-aminoacylation at or above 1?
false (0)

Identify whether the reported self-aminoacylation of the following sequence is 1 or greater: AUUCACCUAGUUCACCGGGUG [Fam2.2 aminoacylation ribozyme variant]
true (1)

Does the sequence CCACACUUCAUGCAAUCGGUA [Fam1B.1 aminoacylation ribozyme variant] have recorded self-aminoacylation that is 1 or more?
false (0)

Determine whether this sequence has self-aminoacylation no lower than 1: AUUCAGCUAGGUCAUCGCGUG [Fam2.2 aminoacylation ribozyme variant]
true (1)

hey, is self-aminoacylation for this one >= 1? AUUACCCUGGUCAUAUAGUGA [Fam2.1 aminoacylation ribozyme variant]
true (1)

Entry AUUACCCUGCUCAUCGAAUGA [Fam2.1 aminoacylation ribozyme variant] : is its self-aminoacylation no less than 1?
true (1)

Is self-aminoacylation at least 1? Consider AUUCACCGAGGUCACCGGGUG [Fam2.2 aminoacylation ribozyme variant]
true (1)

Is reported self-aminoacylation greater than or equal to 1 here: AUUCAUCUAGGUCAGCGGGUG [Fam2.2 aminoacylation ribozyme variant]
true (1)

Could you verify whether the entry AAGUUUGCUAAGAGUAGCAAG [Fam3.1 aminoacylation ribozyme variant] shows self-aminoacylation of no less than 1?
true (1)

Please check the record AUUCAUCUAGGUCAUCGCGUG [Fam2.2 aminoacylation ribozyme variant] and state if its self-aminoacylation is at or above 1.
true (1)

Determine whether this sequence has self-aminoacylation no lower than 1: CAGCUUCAAACAAUCGGUCUG [Fam1A.1 aminoacylation ribozyme variant]
true (1)

hey, is self-aminoacylation for this one >= 1? UUAGUUCAAACAAUCGGUCUG [Fam1A.1 aminoacylation ribozyme variant]
true (1)

Textbook exercise: given the entry CCACCCUUCAAGCAAUCAGUC [Fam1B.1 aminoacylation ribozyme variant] , state whether its self-aminoacylation is greater than or equal to 1.
true (1)

Textbook exercise: given the entry AUUACUCUGGUCAUCGAAUGA [Fam2.1 aminoacylation ribozyme variant] , state whether its self-aminoacylation is greater than or equal to 1.
false (0)

Evaluate AUUACCCUGCUUAUCGAGUGA [Fam2.1 aminoacylation ribozyme variant] : self-aminoacylation at minimum 1?
true (1)

Textbook exercise: given the entry AAGUGUGCUAAUAGUCUCAAG [Fam3.1 aminoacylation ribozyme variant] , state whether its self-aminoacylation is greater than or equal to 1.
true (1)

Hi team, for AUUACCCAGGUCGUCGAGUGA [Fam2.1 aminoacylation ribozyme variant] , is the recorded self-aminoacylation at or above 1?
false (0)

Does self-aminoacylation meet or surpass 1 for AUUCACGUAGGUCAUCAGGUG [Fam2.2 aminoacylation ribozyme variant] ?
true (1)

Is self-aminoacylation for AUUCACCUAGUGCAUCGGGUG [Fam2.2 aminoacylation ribozyme variant] at or above 1?
true (1)

Does the sequence CUCCUCCAAACAAUCGGUCUG [Fam1A.1 aminoacylation ribozyme variant] have recorded self-aminoacylation that is 1 or more?
true (1)

Decide: self-aminoacylation of CCACACUUCAAGUAAUCCGUC [Fam1B.1 aminoacylation ribozyme variant] >= 1?
true (1)

Hello, I need to know if ACGUUUGCUCAUAGUCGCAAG [Fam3.1 aminoacylation ribozyme variant] has measured self-aminoacylation not below 1. Thanks!
true (1)

Reported self-aminoacylation at or above 1? AUUCACCUAGGUCUUCGGGUU [Fam2.2 aminoacylation ribozyme variant]
true (1)
